# glycan array binding signal (z-score) annotations
targetSystem: Man(a1-3)[Man(a1-6)]Man(a1-6)[Man(a1-3)]Man
experimentalProtocol: glycan array binding signal (z-score within array); higher = stronger binding
conditionDescription: glycan notation: IUPAC condensed, linker removed
Many of the other results were omitted from the sample, so the strongest signals are more common in it than they were.
assayMetric: glycan array binding signal (z-score)

- Epa23 (Candida glabrata) (protein) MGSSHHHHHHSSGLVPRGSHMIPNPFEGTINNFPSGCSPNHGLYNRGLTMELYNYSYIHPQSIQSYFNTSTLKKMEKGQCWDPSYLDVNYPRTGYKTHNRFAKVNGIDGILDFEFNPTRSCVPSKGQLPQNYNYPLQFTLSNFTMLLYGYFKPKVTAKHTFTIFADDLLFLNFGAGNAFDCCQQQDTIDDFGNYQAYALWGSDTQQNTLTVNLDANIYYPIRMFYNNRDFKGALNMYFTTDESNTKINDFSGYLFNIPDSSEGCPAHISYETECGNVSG: -0.232
- Clone730PsrP (Streptococcus pneumoniae) (protein) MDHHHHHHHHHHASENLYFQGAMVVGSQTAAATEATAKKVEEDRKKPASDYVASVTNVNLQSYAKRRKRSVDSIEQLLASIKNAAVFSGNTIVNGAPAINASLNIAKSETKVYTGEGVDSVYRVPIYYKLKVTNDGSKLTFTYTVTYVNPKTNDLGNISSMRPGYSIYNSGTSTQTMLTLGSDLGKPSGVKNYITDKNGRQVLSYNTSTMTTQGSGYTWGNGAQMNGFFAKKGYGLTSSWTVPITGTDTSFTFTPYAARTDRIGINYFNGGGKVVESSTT: 2.14
